Here is a set of compounds with reported Ki for Glycogen phosphorylase, liver form (Homo sapiens, UniProt P06737), compiled from the literature.
Measurement type: Ki (µM)

Recorded results for 3 compounds are shown here.
OC[C@H]1O[C@@H](c2c[nH]c(-c3ccc4ccccc4c3)n2)[C@H](O)[C@@H](O)[C@@H]1O = 3.2
OC[C@H]1O[C@@H](c2c[nH]c(-c3ccccc3)n2)[C@H](O)[C@@H](O)[C@@H]1O = 25.9
OC[C@H]1O[C@@H](c2csc(-c3ccccc3)n2)[C@H](O)[C@@H](O)[C@@H]1O = 172

[1] OC[C@H]1O[C@@H](c2nc(-c3ccc4ccccc4c3)c[nH]2)[C@H](O)[C@@H](O)[C@@H]1O
[2] OC[C@H]1O[C@H](O)[C@H](O)[C@@H](O)[C@@H]1O
Problem: I would appreciate it if you could say which entry, 1 or 2 , has the lower Ki value. Answer format: the label of the selected item.
Result: 1
(1: 0.026 µM, 2: 4900 µM)
